// data source = ChEMBL document CHEMBL3603826

Test system: Liver microsome
Assay notes: Drug level in human liver microsomes treated with 10 uM 3-Amino-N-cyclopentyl-6-(m-tolyl)pyrazine-2-carboxamide assessed as compound formation after 60 mins presence of NADPH regenerating system and UDPGA by LC-MS method
Assay type: ADME
Condition label: 1 h

{"Smiles record": "Cc1cccc(-c2cnc(N)c(C(=O)NC3=CCCC3)n2)c1", "Drug metabolism": "metabolite_detected"}
{"Smiles record": "Cc1cccc(-c2c[n+]([O-])c(N)c(C(=O)NC3CCCC3)n2)c1", "Drug metabolism": "metabolite_detected"}
{"Smiles record": "Nc1ncc(-c2cccc(C(=O)O)c2)nc1C(=O)NC1CCCC1", "Drug metabolism": "metabolite_detected"}
{"Smiles record": "Nc1ncc(-c2cccc(CO)c2)nc1C(=O)NC1CCCC1", "Drug metabolism": "metabolite_detected"}

###

System tested: serum albumin (Homo sapiens)
Sequence (P02768 whole entry): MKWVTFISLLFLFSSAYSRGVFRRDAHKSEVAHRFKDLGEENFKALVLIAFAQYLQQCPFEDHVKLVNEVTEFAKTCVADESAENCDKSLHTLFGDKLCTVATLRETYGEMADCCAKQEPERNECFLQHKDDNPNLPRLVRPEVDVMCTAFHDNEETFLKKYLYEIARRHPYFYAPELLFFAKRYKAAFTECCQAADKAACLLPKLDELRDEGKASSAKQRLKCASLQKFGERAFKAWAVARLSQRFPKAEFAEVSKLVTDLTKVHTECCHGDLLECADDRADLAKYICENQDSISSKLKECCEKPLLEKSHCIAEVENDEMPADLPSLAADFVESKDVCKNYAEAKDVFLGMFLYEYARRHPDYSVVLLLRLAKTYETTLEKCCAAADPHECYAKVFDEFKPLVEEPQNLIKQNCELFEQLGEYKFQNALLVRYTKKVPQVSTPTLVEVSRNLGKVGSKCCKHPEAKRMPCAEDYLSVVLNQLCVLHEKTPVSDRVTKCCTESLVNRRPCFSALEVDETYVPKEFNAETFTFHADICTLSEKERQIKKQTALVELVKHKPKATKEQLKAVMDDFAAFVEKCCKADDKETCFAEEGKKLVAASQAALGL
Assay notes: Binding affinity to human serum albumin by chromatographic method
Assay type: ADME
Condition label: read-out: PB (converted)
Entry flag: Met if fraction unbound reaches 0.03; Not met if it does not.

A selection of reference data follows.
{"Molecule": "CCC(C)NC(=O)c1nc(-c2ccc(F)cc2)cnc1N (stereo unspecified)", "System tested": "serum albumin (Homo sapiens)", "Answer label": "Met"}
{"Molecule": "CCC(CC)NC(=O)c1nc(-c2ccc(F)c(C)c2)cnc1N", "System tested": "serum albumin (Homo sapiens)", "Answer label": "Not met"}
{"Molecule": "Nc1ncc(-c2ccccc2)nc1C(=O)NC1CCCC1", "System tested": "serum albumin (Homo sapiens)", "Answer label": "Met"}
{"Molecule": "CCC(C)NC(=O)c1nc(-c2cccc(Cl)c2)cnc1N (stereo unspecified)", "System tested": "serum albumin (Homo sapiens)", "Answer label": "Not met"}

-- ask Check the entry `Cc1cccc(-c2cnc(N)c(C(=O)NC3CCCC3)n2)c1` : does fraction unbound equal or exceed 0.03?
-- reply Not met

###

Test system: Trypanosoma cruzi
Assay notes: Anti-parasitic activity against Trypanosoma cruzi Tulahuen C2C4 trypomastigotes infected rat L6 cells incubated for 96 hrs by CPRG/nonidet substrate based […]
Assay type: functional, organism-based
Condition label: Tulahuen C2C4, L6, 96 h
Measurement label: EC50 (µM)
Answer format: numeric, µM implied, no suffix.

{"Compound": "Cc1cccc(-c2cnc(N)c(C(=O)NC3CCCC3)n2)c1", "Unit abbreviation": "µM", "Result value": 17}
{"Compound": "CCC(CC)NC(=O)c1nc(-c2ccc(F)c(C)c2)cnc1N", "Unit abbreviation": "µM", "Result value": 13}
{"Compound": "CCC(CC)NC(=O)c1nc(-c2ccc(F)cc2C#N)cnc1N", "Unit abbreviation": "µM", "Result value": 19}

The reported EC50 value, Trypanosoma cruzi, for `CCC(CC)NC(=O)c1nc(-c2ccc(F)cc2)cnc1N` reads 15

The reported EC50 value, Trypanosoma cruzi, for `CCC(CC)NC(=O)c1nc(-c2ccccc2C#N)cnc1N` reads 15

The reported EC50 value, Trypanosoma cruzi, for CCC(C)NC(=O)c1nc(-c2ccccc2C#N)cnc1N (configuration not stated) reads 11

The reported EC50 value, Trypanosoma cruzi, for CCC(C)NC(=O)c1nc(-c2ccccc2)cnc1N (configuration not stated) reads 19

###

Assay notes: Selectivity index, ratio of cytotoxic IC50 for rat L6 cells to EC50 for anti-parasitic activity against Trypanosoma brucei rhodesiense STIB 900
Assay type: toxicity, cell-based
Condition label: read-out: Ratio IC50/EC50
// returns F unless selectivity ratio is strictly below 200, in which case T

A selection of reference data follows.
{"Molecule": "CCC(C)NC(=O)c1nc(-c2cccc(C)c2)cnc1N (configuration not stated)", "Answer label": "F"}
{"Molecule": "Nc1ncc(-c2ccccc2)nc1C(=O)NC1CCCC1", "Answer label": "T"}
{"Molecule": "CCC(CC)NC(=O)c1nc(-c2ccccc2C#N)cnc1N", "Answer label": "T"}
{"Molecule": "CCC(CC)NC(=O)c1nc(-c2cccc(C)c2)cnc1N", "Answer label": "T"}
{"Molecule": "CCC(CC)NC(=O)c1nc(-c2ccc(F)c(C)c2)cnc1N", "Answer label": "F"}
{"Molecule": "CCC(C)NC(=O)c1nc(-c2ccccc2)cnc1N (configuration not stated)", "Answer label": "T"}

-- ask Is the reported selectivity ratio for CCC(C)NC(=O)c1nc(-c2ccc(F)cc2)cnc1N (configuration not stated) strictly below 200?
-- reply T

-- ask Is the reported selectivity ratio for `N#Cc1ccccc1-c1cnc(N)c(C(=O)NC2CCCC2)n1` strictly below 200?
-- reply T

-- ask Is the reported selectivity ratio for `Cc1cccc(-c2cnc(N)c(C(=O)NC3CCCC3)n2)c1` strictly below 200?
-- reply F

-- ask Is the reported selectivity ratio for `CCC(CC)NC(=O)c1nc(-c2ccc(F)cc2)cnc1N` strictly below 200?
-- reply F

-- ask Is the reported selectivity ratio for CCC(C)NC(=O)c1nc(-c2cccc(Cl)c2)cnc1N (configuration not stated) strictly below 200?
-- reply T

-- ask Is the reported selectivity ratio for `CCC(CC)NC(=O)c1nc(-c2ccc(F)cc2C#N)cnc1N` strictly below 200?
-- reply F

###

This listing pairs compounds with measured IC50 at 70 h.
Assay notes: Toxicity against rat L6 cells incubated for 70 hrs by alamar blue dye based assay
Format: cell-based
Answer format: numeric, µM implied, no suffix.

{"Compound": "Cc1cccc(-c2cnc(N)c(C(=O)NC3CCCC3)n2)c1", "Unit abbreviation": "µM", "IC50 at 70 h": 42}

So for `CCC(CC)NC(=O)c1nc(-c2ccccc2C#N)cnc1N` , the logged IC50 at 70 h turned out to be 10

So for CCC(C)NC(=O)c1nc(-c2cccc(C)c2)cnc1N (stereo not drawn) , the logged IC50 at 70 h turned out to be 43

So for `CCC(CC)NC(=O)c1nc(-c2ccc(F)cc2C#N)cnc1N` , the logged IC50 at 70 h turned out to be 20

So for `N#Cc1ccccc1-c1cnc(N)c(C(=O)NC2CCCC2)n1` , the logged IC50 at 70 h turned out to be 11

So for CCC(C)NC(=O)c1nc(-c2ccccc2)cnc1N (stereo not drawn) , the logged IC50 at 70 h turned out to be 18

So for CCC(C)NC(=O)c1nc(-c2cccc(Cl)c2)cnc1N (stereo not drawn) , the logged IC50 at 70 h turned out to be 39

So for `CCC(CC)NC(=O)c1nc(-c2ccc(F)cc2)cnc1N` , the logged IC50 at 70 h turned out to be 28

So for `Nc1ncc(-c2ccccc2)nc1C(=O)NC1CCCC1` , the logged IC50 at 70 h turned out to be 20

So for CCC(C)NC(=O)c1nc(-c2ccccc2C#N)cnc1N (stereo not drawn) , the logged IC50 at 70 h turned out to be 18

So for `CCC(CC)NC(=O)c1nc(-c2cccc(C)c2)cnc1N` , the logged IC50 at 70 h turned out to be 20

So for CCC(C)NC(=O)c1nc(-c2ccc(F)cc2)cnc1N (stereo not drawn) , the logged IC50 at 70 h turned out to be 17

So for `CCC(CC)NC(=O)c1nc(-c2ccc(F)c(C)c2)cnc1N` , the logged IC50 at 70 h turned out to be 24

###

Assay notes: Selectivity index, ratio of cytotoxic IC50 for HEK293 cells to EC50 for anti-parasitic activity against Trypanosoma brucei brucei 427 bloodstream parasites
Format: toxicity, cell-based
Condition label: human, read-out: Ratio IC50/EC50
Measurement label: selectivity ratio
Lab note: record the figure alone, no unit after it.

Recorded selectivity ratio, per entry:
{"Compound": "CCC(CC)NC(=O)c1nc(-c2ccc(F)cc2)cnc1N", "Measurement label": "selectivity ratio", "Result value": 1024}
{"Compound": "N#Cc1ccccc1-c1cnc(N)c(C(=O)NC2CCCC2)n1", "Measurement label": "selectivity ratio", "Result value": 416}
{"Compound": "CCCCCNC(=O)c1nc(-c2ccccc2)cnc1N", "Measurement label": "selectivity ratio", "Result value": 50}

We now examine a further compound.
So for CCC(C)NC(=O)c1nc(-c2ccccc2Cl)cnc1N (stereo unspecified) , the logged selectivity ratio turned out to be 76

###

Assay notes: Volume of distribution in Swiss mouse at 1.8 mg/kg, iv by LC-MS method
Assay type: ADME, organism-based
Condition label: in vivo
Measurement label: Vd (L/kg)
Answer format: numeric, L/kg implied, no suffix.

So for `CCC(CC)NC(=O)c1nc(-c2ccc(F)cc2)cnc1N` , the logged Vd turned out to be 14.7

###

Assay notes: Drug metabolism in human liver microsomes after 60 mins at 10 uM presence of NADPH regenerating system by LC-MS method
Type: ADME
Condition label: read-out: Drug metabolism
Measurement label: metabolised at 1 h, 10 µM (%)
Answer format: numeric, % implied, no suffix.

So for `Cc1cccc(-c2cnc(N)c(C(=O)NC3CCCC3)n2)c1` , the logged metabolised at 1 h, 10 µM turned out to be 92

###

This listing pairs compounds with measured solubility kinetic.
Assay notes: Kinetic solubility in pH 2.0 0.01M HCl buffer by nephelometry
Format: physicochemical
Condition label: read-out: Kinetic_solubility

Recorded solubility kinetic, per entry:
{"Compound": "CC(C)(C)NC(=O)c1nc(-c2ccccc2)cnc1N", "solubility kinetic": "< 1.6 µg/mL"}
{"Compound": "CCC(CC)NC(=O)c1nc(-c2ccccc2)cnc1N", "solubility kinetic": "6.3 µg/mL"}
{"Compound": "CCC(C)NC(=O)c1nc(-c2ccccc2C#N)cnc1N (stereo not drawn)", "solubility kinetic": "1.6 µg/mL"}
{"Compound": "CCC(C)NC(=O)c1nc(-c2ccc(F)cc2)cnc1N (stereo not drawn)", "solubility kinetic": "6.3 µg/mL"}
{"Compound": "CCC(C)NC(=O)c1nc(-c2cccc(Cl)c2)cnc1N (stereo not drawn)", "solubility kinetic": "1.6 µg/mL"}
{"Compound": "N#Cc1ccccc1-c1cnc(N)c(C(=O)NC2CCCC2)n1", "solubility kinetic": "3.1 µg/mL"}
{"Compound": "CCC(CC)NC(=O)c1nc(-c2ccc(F)cc2)cnc1N", "solubility kinetic": "3.1 µg/mL"}
{"Compound": "CCC(CC)NC(=O)c1nc(-c2ccc(F)cc2C#N)cnc1N", "solubility kinetic": "< 1.6 µg/mL"}
{"Compound": "Nc1ncc(-c2ccccc2)nc1C(=O)NC1CCCC1", "solubility kinetic": "6.3 µg/mL"}
{"Compound": "CCC(C)NC(=O)c1nc(-c2ccc(Cl)cc2)cnc1N (stereo not drawn)", "solubility kinetic": "3.1 µg/mL"}

So for `CCC(CC)NC(=O)c1nc(-c2cccc(C)c2)cnc1N` , the logged solubility kinetic turned out to be 1.6 µg/mL

So for `CCC(CC)NC(=O)c1nc(-c2ccc(F)c(C)c2)cnc1N` , the logged solubility kinetic turned out to be < 1.6 µg/mL

So for `Cc1cccc(-c2cnc(N)c(C(=O)NC3CCCC3)n2)c1` , the logged solubility kinetic turned out to be 3.1 µg/mL
